competition rate overview
SYSTEM_NAME: T1, human MSLN-FL-his protein (human, UniProt Q13421 296-580)
T1 construct: made in HEK293E cells, purified on nickel column; also called hMSLN-FL-his; human MSLN full-length protein; not shown: His tag
PROCEDURE_SUMMARY: competitive ELISA; row F8-24.14; also: test concentration or dose not given here
Just the number please, in %, no unit attached.

Before answering, review these 4 worked examples.
S009-F8-22.23 (antibody, human IgG1, kappa, V domains shown, human-murine chimeric antibody, human IgG1/kappa constant regions) VH: QVQLKQSGPGLVQPSQSLSITCTVSGFSLFSYGVHWVRQSPGKGLEWLGVIWSGGSTDYNAAFISRLSISKDNSKSQVFFKMNSLQADDTAMYYCARNGGSMITTLYYAMDYWGQGTSVTVSS VL: DVVMTQTPLSLPVSLGDQASISCRSSQSLVHSYGNTYLHWYLQKPGQSPKLLIYKVSNRFSGVPDRFSGSGSGTDFTLKISRVEAEDLGVYFCSQSTHIPFTFGGGTKLEIKR
92.4
S009-F8-36.12 (antibody, human IgG1, kappa, V domains shown, human-murine chimeric antibody, human IgG1/kappa constant regions) VH: EVQLQQSGPELVKPGASVKISCKASGYTFTDYYMNWVKQSHGKSLEWIGDINPNNGGTSYNQKFKGKATLTVDKSSSTAYMELRSLTSEDSAVYYCASWGYGSSSRGYFDYWGQGTTLTVSS VL: QIVLSQSPAILSASPGEKVTMTCRASSSVSYMHWYQQKPGSSPKPWIYATSNLASGVPARFSGSGSGTSYSLTISRVEAEDAATYYCQQWSSNPWTFGGGTKLEIKR
10.3
S009-F8-28.23 (antibody, human IgG1, kappa, V domains shown, human-murine chimeric antibody, human IgG1/kappa constant regions) VH: EVQLVESGGDLVKPGGSLKLSCAASGFTFSSYAMSWVRQTPEKRLEWVATISDGGSYTYYPDNVEGRFTISRDNAKNNLYLQMSHLKSEDTAMYYCAGDRGYSYALDYWGQGTSVTVSS VL: NIMMTQSPSSLAVSAGEKVTMSCKSSQSVLYSSNQKNYLAWYQQKPGQSPKLLIYWASTRESGVPDRFTGSGSGTDFTLTISSVQAEDLAVYYCHQYLSSLTFGAGTKLELKR
33.6
S009-F8-33.12 (antibody, human IgG1, kappa, V domains shown, human-murine chimeric antibody, human IgG1/kappa constant regions) VH: EVQLQQSGAELVKPGASVKLSCTASAFNIKDYYMHWVKQRTEQGLEWIGRIDPEDGETKYAPKFQGKATITADTSSNTAYLQLSSLTSEDTAVYYCASGSGTGAMDYWGQGTSVTVSS VL: DIVMTQSQKFMSTSVGDRVSITCKASQNVRTAVGWYQQKPGQSPKALIYLASNRHTGVPDRFTGSGSGTDFTLTISNVQSEDLADYFCLQHWNSPYTFGGGTKLVIKR
95.5

Enquiry: For S009-F8-32.3 (antibody, human IgG1, kappa, V domains shown, human-murine chimeric antibody, human IgG1/kappa constant regions) VH: QVQLKESGPGLVAPSQSLSITCTVSGFSLSSYAISWVRQPPGKGLEWLGVIWTGGGTNYNSALKSRLSISKDNSKSQVFLKMNSLQTDDTARFYCARNNYGRLDYAMDYWGQGTSVTVSS VL: DVVMTQTPLSLPVSLGDQASISCRSSQSLVHGNGNTYLHWYLQKPGQSPKLLIYKVSNRFSGVPDRFSGSGSGTDFTLKISRVETEDLGVYFCSQSTHVPFTFGSGTKLEIKR , what is its reported competition rate?
Return: 95
